Reference for the values: the supplement of paper PMC9170038

# apparent KD of K4 kissing-loop reporter listing for each entry below
- System: K4 kissing-loop RNA reporter
- Assay info: apparent KD of K4 kissing-loop reporter; higher = weaker reporter binding
- Measurement setup: Eterna round: R107; input ligand: arginine 13.2 mM
Put down the number, then write its unit next to it.

Use these answered entries as a reference point.
Primary sequence	Observed result
GACAUCUAUCGCCGAUAGUGUUUAUCUUGGGAGGAUAUGUCAGCGGACAGAAGGCCCAGUGAUGUUGGGUAGAUGACCGUUGCUU [Edbiza]	114 nM
UUUCGUAGAAGUGAUACCAGACUGGAAAGUGAUGUUUUCCAAUUAUUUAAAUCCUUAUCUGUCCCUUGGCAGCACAGUUUAUUUA [JR_Nu_ExcTheophyB_Sub027]	81.3 nM
UGGCGUAGAACCGCCGAAUCGCUGUGAGAAGGAGCGGUAAAAUUGCCAGGUAGGUCGCUCACAGCCUCACAGUGAUGUUGUGGGA [Cequralaza]	105 nM
AAUGGAGGCUGAAGGAGCGCCGCCAGUGAUGUUGGGAGUUAGAUACCAGUGAUGUUGGGCCGGCAGGUAGGUCGCGGUUUUUAUU [Exclusion Arginine B Gf 16]	78.4 nM
UGUCAUUGGUCGGCCGCCACUUUAUAUGGAGUGAUGUUUUGUAGAUUGUGUUGAAAGGUGUGGUGAAGGACCGGGACCGAUGACU [FiskerMod 25 - Jieux - Same State - Tryptophan B]	617 nM
AGUCGAGAUUAUAGACUCGACAGGUCAGAAGGAGCGACGAAUUCGUCAGGUAGGUCGCUGACAUAGCAGUGAUGUUGCUAUACGG [Arg A SS t1]	132 nM
AACCGAGGUAAUCCACAAUGAUUAGAAGAUACCAGAUAUAUAAAUAUCCCUUGGCAGCUUUGAAUGAGUGAUGUUCAUUUGUCAU [KL-SSTheo-A11]	207 nM
GGAAGGAAGGGAAGGAGCGCGCAGGCAGUGAUGUUGCCAAACAAAACAAACAAAACAAAAGCGCAGGUAGGUCGCCCGAAGGACG	92.8 nM

Prompt line: API: value(readout=apparent KD of K4 kissing-loop reporter, system=K4 kissing-loop RNA reporter) for record AGAUGACACCGAGGAUAUCCUAAUAUGGGUGAUGUUAGCGAUGUUGAAGGUGUAGUGAUGUUAUGCGGAGAAGGCGGUGUUGUUU [BDazzled - #21 - Exc. FMN B];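 further: bound reporter read as fluorescence of individual clusters on recovered sequencing chips by microscopy, with normalized cluster intensities fitted with a binding model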
Response line: 103 nM
